Let's look at some compounds and their measured pIC50.
# subject of test: Delta-type opioid receptor (Mus musculus)
# Sequence (P32300 whole entry): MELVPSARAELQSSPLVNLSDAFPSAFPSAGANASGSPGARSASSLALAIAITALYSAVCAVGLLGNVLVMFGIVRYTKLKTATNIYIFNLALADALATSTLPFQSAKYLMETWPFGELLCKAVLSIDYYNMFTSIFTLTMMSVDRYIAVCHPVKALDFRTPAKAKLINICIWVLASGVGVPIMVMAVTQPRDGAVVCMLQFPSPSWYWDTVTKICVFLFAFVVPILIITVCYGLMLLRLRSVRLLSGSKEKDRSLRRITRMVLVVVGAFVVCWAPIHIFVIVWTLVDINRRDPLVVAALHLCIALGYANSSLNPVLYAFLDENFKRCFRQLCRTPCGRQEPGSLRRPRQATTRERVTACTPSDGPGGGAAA
# procedure details: In vitro inhibitory concentration against Opioid receptor delta 1 was measured using mouse vas deferens assay
pIC50: −log10 of the molar value. Starred links: 1 amine or outer side, 2 acyl side, 3 side chain; linkers in the order of their positions; H or OH if unused. Positions of bridges follow the written chain, without caps; N, C: chain ends. Residues, ends and D or L forms follow the SMILES beside them. Chains are numbered I, II in the order given. Ethylenediamine = C(CN[*:2])N[*:1]

compound	limit operator	pIC50
N[C@@H](Cc1ccc(O)cc1)C(=O)N1CCC[C@H]1C(=O)N[C@@H](Cc1ccccc1)C(=O)NNC(=O)[C@H](Cc1ccccc1)NC(=O)[C@@H]1CCCN1C(=O)[C@@H](N)Cc1ccc(O)cc1	=	5.49
N[C@@H](Cc1ccc(O)cc1)C(=O)N1CCC[C@H]1C(=O)N[C@@H](Cc1ccccc1)C(=O)NCCNC(=O)[C@H](Cc1ccccc1)NC(=O)[C@@H]1CCCN1C(=O)[C@@H](N)Cc1ccc(O)cc1 (I: H-Tyr-Pro-Phe / II: H-Tyr-Pro-Phe; linker I:C-II:C via Ethylenediamine)	=	5.99
N[C@@H](Cc1ccc(O)cc1)C(=O)N1CCC[C@H]1C(=O)N[C@@H](Cc1ccccc1)C(=O)N[C@@H](Cc1ccccc1)C(=O)NNC(=O)[C@H](Cc1ccccc1)NC(=O)[C@H](Cc1ccccc1)NC(=O)[C@@H]1CCCN1C(=O)[C@@H](N)Cc1ccc(O)cc1	=	6.14
N[C@@H](Cc1ccc(O)cc1)C(=O)N1CCC[C@H]1C(=O)N[C@@H](Cc1ccccc1)C(=O)N[C@@H](Cc1ccccc1)C(=O)NCCNC(=O)[C@H](Cc1ccccc1)NC(=O)[C@H](Cc1ccccc1)NC(=O)[C@@H]1CCCN1C(=O)[C@@H](N)Cc1ccc(O)cc1	=	7.54
COC(=O)[C@H](Cc1ccccc1)NC(=O)[C@H](Cc1ccccc1)NC(=O)[C@@H]1CCCN1C(=O)[C@@H](N)Cc1ccc(O)cc1	=	7.43
N[C@@H](Cc1ccc(O)cc1)C(=O)N1CCC[C@H]1C(=O)N[C@@H](Cc1ccccc1)C(=O)N[C@@H](Cc1ccccc1)C(=O)NCCCCNC(=O)[C@H](Cc1ccccc1)NC(=O)[C@H](Cc1ccccc1)NC(=O)[C@@H]1CCCN1C(=O)[C@@H](N)Cc1ccc(O)cc1	<	5.00
NNC(=O)[C@H](Cc1ccccc1)NC(=O)[C@H](Cc1ccccc1)NC(=O)[C@@H]1CCCN1C(=O)[C@@H](N)Cc1ccc(O)cc1	=	6.73
